Target or test system: human LXRβ (Homo sapiens)
Construct: expressed in transfected cells; host or cells: HEK293 cells (ATCC CRL-1573), transient transfection with pFA-hLXRβ/GAL4 and pUAS
Sequence (P55055 222-460 limits assumed): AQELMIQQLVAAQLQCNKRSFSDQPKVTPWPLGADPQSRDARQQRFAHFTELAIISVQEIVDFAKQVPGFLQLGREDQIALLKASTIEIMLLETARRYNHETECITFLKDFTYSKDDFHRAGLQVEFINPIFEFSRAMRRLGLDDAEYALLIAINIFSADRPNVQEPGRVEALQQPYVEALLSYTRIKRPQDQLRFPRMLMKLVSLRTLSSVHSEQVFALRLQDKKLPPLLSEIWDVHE
Protocol text: Assay for Transcriptional Activity of LXRβ (GAL4-hLXRβ LBD luciferase reporter, transient transfection)
Type: cell-based
Measurement parameters: fold value in comparison with the control (DMSO-treated group); HEK293 cells transfected with pFA-hLXRβ/GAL4 and pUAS; 24 hours
Listing of entries alongside the reported Emax.
Express it in fold; write the number only.

// below: answered compounds
Compound	Target or test system	Emax, fold
CS(=O)(=O)c1cccc(-c2ccc(C3CC(C(O)(C(F)(F)F)C(F)(F)F)=NN3c3ccc(F)cc3F)cc2)c1 (stereo not shown)	human LXRβ (Homo sapiens)	49
CCOc1cccc(-c2ccc(C3CC(C(O)(C(F)(F)F)C(F)(F)F)=NN3c3ccc(F)cc3F)cc2)c1 (stereo not shown)	human LXRβ (Homo sapiens)	80
O=S(=O)(C1CC1)N1CCCN(c2ccc(C3CC(C(O)(C(F)(F)F)C(F)(F)F)=NN3c3ccccc3Cl)cc2)CC1 (stereo not shown)	human LXRβ (Homo sapiens)	53
N#Cc1cncc(-c2ccc(C3CC(C(O)(C(F)(F)F)C(F)(F)F)=NN3c3ccccc3Cl)cc2)c1 (stereo not shown)	human LXRβ (Homo sapiens)	68
CC(C)S(=O)(=O)N1CCCN(c2ccc(C3CC(C(O)(C(F)(F)F)C(F)(F)F)=NN3c3ccccc3Cl)cc2)CC1 (stereo not shown)	human LXRβ (Homo sapiens)	37
O=Cc1ccc(-c2cccc(C3CC(C(F)(F)C(F)(F)F)=NN3c3ccc(F)cc3F)c2)nc1 (stereo not shown)	human LXRβ (Homo sapiens)	46

Here Cc1cccc(-c2ccc(C3CC(C(O)(C(F)(F)F)C(F)(F)F)=NN3c3ccccc3Cl)cc2)n1 (stereo not shown) was tested on human LXRβ (Homo sapiens), and its Emax came to 87

Here CN(C)S(=O)(=O)N1CCCN(c2ccc(C3CC(C(O)(C(F)(F)F)C(F)(F)F)=NN3c3ccccc3Cl)cc2)CC1 (stereo not shown) was tested on human LXRβ (Homo sapiens), and its Emax came to 51

Here O=S(=O)(N1CCCC1)N1CCN(c2ccc(C3CC(C(O)(C(F)(F)F)C(F)(F)F)=NN3c3ccccc3Cl)cc2)CC1 (stereo not shown) was tested on human LXRβ (Homo sapiens), and its Emax came to 39

Here COc1ccc(-c2ccc(C3CC(C(O)(C(F)(F)F)C(F)(F)F)=NN3c3ccccc3Cl)cc2)c(Cl)c1 (stereo not shown) was tested on human LXRβ (Homo sapiens), and its Emax came to 58

Here COc1ccc(-c2ccc(C3CC(C(O)(C(F)(F)F)C(F)(F)F)=NN3c3ccccc3Cl)cc2F)cn1 (stereo not shown) was tested on human LXRβ (Homo sapiens), and its Emax came to 57

###

Target or test system: human LXRβ (Homo sapiens)
Construct: expressed in transfected cells; host or cells: HEK293 cells (ATCC CRL-1573), transient transfection with pFA-hLXRβ/GAL4 and pUAS
Protocol text: Assay for Transcriptional Activity of LXRβ (GAL4-hLXRβ LBD luciferase reporter, transient transfection)
Assay type: cell-based
Measurement parameters: fold value in comparison with the control (DMSO-treated group); HEK293 cells transfected with pFA-hLXRβ/GAL4 and pUAS; 24 hours
Measurement name: Emax (fold)
Express it in fold; write the number only.

Compound	Scale unit	Value reported
CS(=O)(=O)N1CC=C(c2ccnc(C3CC(C(F)(F)C(F)(F)F)=NN3c3ccc(F)cc3F)c2)CC1 (stereo not shown)	fold	118
CN(C)S(=O)(=O)N1CC=C(c2cccc(C3CC(C(O)(C(F)(F)F)C(F)(F)F)=NN3c3ccccc3Cl)c2)CC1 (stereo not shown)	fold	44
OC(C1=NN(c2ccccc2Cl)C(c2ccc(-c3cc(F)c(-n4cncn4)cc3F)cc2)C1)(C(F)(F)F)C(F)(F)F (stereo not shown)	fold	47

Consider the record given below.
Memo: CNCCCS(=O)(=O)c1cccc(-c2ccc(C3CC(C(O)(C(F)(F)F)C(F)(F)F)=NN3c3ccc(F)cc3F)cc2)c1 (stereo not shown) , reported Emax: 53
